- System: DMPK
- ASSAY SUMMARY: DMPK knockdown by transfected antisense oligonucleotides in DM1 C15 myotubes at 0.5 nM and 50 nM
- Format: cell-based
- CONDITION SUMMARY: 0.5 nM oligonucleotide, 72 hours, relative to vehicle control = 1.00
Catalogue of Normalized DMPK Remaining readings, one per entry.
PROPERTY NAME: Normalized DMPK Remaining

substance="475 (GCCUCAGCCUGGCCGAAAGA; chemistry not given here) [compound 475]" reported_result=1.05
substance="381 (UAGUUCUCAUCCUGGAAGGC; chemistry not given here) [compound 381]" reported_result=0.83
substance="399 (GGCACGAGACAGAACAACGG; chemistry not given here) [compound 399]" reported_result=0.84
substance="447 (CAUCCAAAACGUGGAUUGGG; chemistry not given here) [compound 447]" reported_result=0.81
substance="415 (AGGGCCUUUUAUUCGCGAGG; chemistry not given here) [compound 415]" reported_result=0.86
substance="420 (ACAAUCUCCGCCAGGUAGAA; chemistry not given here) [compound 420]" reported_result=0.81
substance="460 (GGUCCAGCAGGAUGUUGUCG; chemistry not given here) [compound 460]" reported_result=0.68
substance="477 (CAGCGGCAGAGAGAGGUGCT; chemistry not given here) [compound 477]" reported_result=0.96
substance="411 (UUGCCCAUCCACGUCAGGGC; chemistry not given here) [compound 411]" reported_result=0.78
substance="455 (UCCAGUUCCAUGGGUGUGGG; chemistry not given here) [compound 455]" reported_result=0.84
substance="469 (CAGGGAAAGCGCCUCCGAUA; chemistry not given here) [compound 469]" reported_result=0.89
substance="440 (CAGGAGCAGGGAAAGCGCCU; chemistry not given here) [compound 440]" reported_result=0.88
substance="385 (GUUGGCCGGCGUGGGCCACC; chemistry not given here) [compound 385]" reported_result=1.02
substance="425 (ACCAGGUACAGGUAGUUCUC; chemistry not given here) [compound 425]" reported_result=0.84
substance="407 (CCAAACUUGCTCAGCAGUGU; chemistry not given here) [compound 407]" reported_result=0.76
substance="426 (CTGCAGUUUGCCCAUCCACG; chemistry not given here) [compound 426]" reported_result=1.11
substance="414 (UAGAACAUUUCAUAGGCGAA; chemistry not given here) [compound 414]" reported_result=0.80
substance="476 (AGCGUCACCUCGGCCUCAGC; chemistry not given here) [compound 476]" reported_result=0.78
substance="396 (ACAGACAAUAAAUACCGAGG; chemistry not given here) [compound 396]" reported_result=1.04
substance="422 (GUAGUUCUCAUCCUGGAAGG; chemistry not given here) [compound 422]" reported_result=0.93
substance="449 (CCUCUGCCUCGCGUAGUUGA; chemistry not given here) [compound 449]" reported_result=0.93
substance="405 (CUUUGGGCAGAUGGAGGGCC; chemistry not given here) [compound 405]" reported_result=0.72
substance="456 (CCUCAGCCUGGCCGAAAGAA; chemistry not given here) [compound 456]" reported_result=0.83
substance="453 (CAGCAGGAUGUUGUCGGGUU; chemistry not given here) [compound 453]" reported_result=0.66
substance="397 (GGACAGACAAUAAAUACCGA; chemistry not given here) [compound 397]" reported_result=0.77
substance="412 (AGGUACAGGUAGUUCUCAUC; chemistry not given here) [compound 412]" reported_result=0.81
substance="446 (AGCGGCAGAGAGAGGUGCUC; chemistry not given here) [compound 446]" reported_result=0.80
substance="390 (UCCUGCAACUGCCGGACGUG; chemistry not given here) [compound 390]" reported_result=0.84
substance="445 (GAGGGCCUUUUAUUCGCGAG; chemistry not given here) [compound 445]" reported_result=0.92
substance="394 (GAGCCUCUGCCUCGCGUAGU; chemistry not given here) [compound 394]" reported_result=0.81
substance="392 (UGCCUGCAGCAACUCCAUCC; chemistry not given here) [compound 392]" reported_result=0.86
substance="439 (CACCAACACGUCCCUCUCCU; chemistry not given here) [compound 439]" reported_result=0.62
substance="464 (UCCUUGUAGUGGACGAUCUU; chemistry not given here) [compound 464]" reported_result=0.87

###

- System: DMPK
- ASSAY SUMMARY: DMPK knockdown by transfected antisense oligonucleotides in DM1 C15 myotubes at 0.5 nM and 50 nM
- Assay type: cell-based
- CONDITION SUMMARY: 50 nM oligonucleotide, 72 hours, qPCR, relative to vehicle control = 1.00
PROPERTY NAME: Normalized DMPK Remaining

substance="259 (CAGCUGCGUGAUCCACCGCC; chemistry not given here) [compound 259]" property_name="Normalized DMPK Remaining" reported_result=0.32
substance="338 (CGGACGGCCCGGCUUGCUGC; chemistry not given here) [compound 338]" property_name="Normalized DMPK Remaining" reported_result=0.70
substance="279 (CAUCUCGGCCGGAAUCCGCU; chemistry not given here) [compound 279]" property_name="Normalized DMPK Remaining" reported_result=0.41
substance="275 (AGCGCCUCCGAUAGGCCAGG; chemistry not given here) [compound 275]" property_name="Normalized DMPK Remaining" reported_result=0.38
substance="271 (CCCACGUAAUACUCCAUGAC; chemistry not given here) [compound 271]" property_name="Normalized DMPK Remaining" reported_result=0.54
substance="260 (CGAAUGUCCGACAGUGUCUC; chemistry not given here) [compound 260]" property_name="Normalized DMPK Remaining" reported_result=0.36
substance="285 (AUCUCGGCCGGAAUCCGCUC; chemistry not given here) [compound 285]" property_name="Normalized DMPK Remaining" reported_result=0.34
substance="282 (AAAGCGCCUCCGAUAGGCCA; chemistry not given here) [compound 282]" property_name="Normalized DMPK Remaining" reported_result=0.38
substance="312 (GUCUCAGUGCAUCCAAAACG; chemistry not given here) [compound 312]" property_name="Normalized DMPK Remaining" reported_result=0.54
substance="331 (GGCCUCAGCCUGGCCGAAAG; chemistry not given here) [compound 331]" property_name="Normalized DMPK Remaining" reported_result=0.35
substance="256 (UCCGCCAGGUAGAAGCGCGC; chemistry not given here) [compound 256]" property_name="Normalized DMPK Remaining" reported_result=0.20
substance="301 (UGUUGUCGGGUUUGAUGUCC; chemistry not given here) [compound 301]" property_name="Normalized DMPK Remaining" reported_result=0.58
substance="373 (GGGACAGACAAUAAAUACCG; chemistry not given here) [compound 373]" property_name="Normalized DMPK Remaining" reported_result=0.49
substance="323 (UUGAUGUCCCUGUGCACGUA; chemistry not given here) [compound 323]" property_name="Normalized DMPK Remaining" reported_result=0.45
substance="290 (GGCCAUGACAAUCUCCGCCA; chemistry not given here) [compound 290]" property_name="Normalized DMPK Remaining" reported_result=0.25
substance="268 (UCAGUGCAUCCAAAACGUGG; chemistry not given here) [compound 268]" property_name="Normalized DMPK Remaining" reported_result=0.58
substance="280 (UUGCCAUAGGUCUCCGCCGU; chemistry not given here) [compound 280]" property_name="Normalized DMPK Remaining" reported_result=0.40

###

- Tested on: DMPK
- ASSAY SUMMARY: DMPK knockdown by transfected antisense oligonucleotides in DM1 C15 myotubes at 0.5 nM and 50 nM
- Assay type: cell-based
- CONDITION SUMMARY: 0.5 nM oligonucleotide, 72 hours, qPCR, relative to vehicle control = 1.00
PROPERTY NAME: Normalized DMPK Remaining

substance="271 (CCCACGUAAUACUCCAUGAC; chemistry not given here) [compound 271]" property_name="Normalized DMPK Remaining" reported_result=0.72
substance="317 (AUCCGCUCCUGCAACUGCCG; chemistry not given here) [compound 317]" property_name="Normalized DMPK Remaining" reported_result=0.87
substance="319 (ACACCUGGCCCGUCUGCUUC; chemistry not given here) [compound 319]" property_name="Normalized DMPK Remaining" reported_result=0.67
substance="369 (CAUGACAAUCUCCGCCAGGU; chemistry not given here) [compound 369]" property_name="Normalized DMPK Remaining" reported_result=0.71
substance="328 (CUUGCCAUAGGUCUCCGCCG; chemistry not given here) [compound 328]" property_name="Normalized DMPK Remaining" reported_result=0.73
substance="272 (CUCUGCCGCAGGGACAGCCG; chemistry not given here) [compound 272]" property_name="Normalized DMPK Remaining" reported_result=0.63
substance="340 (GUACAGGUAGUUCUCAUCCU; chemistry not given here) [compound 340]" property_name="Normalized DMPK Remaining" reported_result=0.68
substance="349 (UUUGCCCAUCCACGUCAGGG; chemistry not given here) [compound 349]" property_name="Normalized DMPK Remaining" reported_result=0.67
substance="313 (GGACGAUCUUGCCAUAGGUC; chemistry not given here) [compound 313]" property_name="Normalized DMPK Remaining" reported_result=0.70
substance="330 (CCAGCGCCCACCAGUCACAC; chemistry not given here) [compound 330]" property_name="Normalized DMPK Remaining" reported_result=0.64
substance="334 (CCAUGACAAUCUCCGCCAGG; chemistry not given here) [compound 334]" property_name="Normalized DMPK Remaining" reported_result=0.65
substance="359 (UGCACGUGUGGCUCAAGCAG; chemistry not given here) [compound 359]" property_name="Normalized DMPK Remaining" reported_result=0.89
substance="255 (GUUGCGGGUUUGAUGUCCC; chemistry not given here) [compound 255]" property_name="Normalized DMPK Remaining" reported_result=0.67
substance="332 (AAUCUCCGCCAGGUAGAAGC; chemistry not given here) [compound 332]" property_name="Normalized DMPK Remaining" reported_result=0.64
substance="312 (GUCUCAGUGCAUCCAAAACG; chemistry not given here) [compound 312]" property_name="Normalized DMPK Remaining" reported_result=0.81
substance="373 (GGGACAGACAAUAAAUACCG; chemistry not given here) [compound 373]" property_name="Normalized DMPK Remaining" reported_result=0.73
substance="357 (CCUCAGCCUCUGCCGCAGGG; chemistry not given here) [compound 357]" property_name="Normalized DMPK Remaining" reported_result=0.89
